Attribute: GI50
test system: COLO 205 colon; test: NCI tumour cell line growth inhibition, 48 h

# example entries with known answers
So what does the record say about GI50 for CN1CCN(C(=O)OCc2nc3c(N4CCOCC4)nc(-c4ccccc4)nc3n2C)CC1 ?
1.36 µM

Reported GI50, compound COc1c(O)cc2c(c1CC=C(C)C)OC(=O)c1c(cc(O)c(CC=C(C)C)c1O)O2 : ____
4.51 µM

Can you share its GI50? I mean this compound: ClCCN(CCCl)c1ccc(OCc2ccccc2)cc1
12.1 µM

For the compound CCOC(=O)c1c2c(n(Cc3ccccc3)c1C)-c1nc[nH]c1C(=O)C2=O , what GI50 is on record?
20.2 µM

What does the data say about its GI50? Entry: NS(=O)(=O)c1ccc(N=Nc2c(O)[nH]c3cccc(CCc4ccncc4)c23)cc1
> 25 µM

Next:
Record request: GI50 value, item O=C1/C(=C\c2ccc(Cl)cc2)CN(C(=O)c2ccccc2)C/C1=C\c1ccc(Cl)cc1
3.45 µM

Consider the compound shown here: Fc1cc(C2=Nn3c(nnc3-c3cc(F)c(Cl)cc3Cl)SC2)c(Cl)cc1Cl What is its recorded GI50?
19 µM

###

test system: MALME-3M melanoma; experiment: NCI tumour cell line growth inhibition, 48 h; in the data active means GI50 below about 0.43 µM; inactive means the rest
Lab note: assign the record to one of true (1) = active, false (0) = inactive

// below: answered compounds
Could you kindly confirm the outcome this assay logged for Cc1cccc2c1NC(=O)[C@@H](NC(=O)[C@H](CCC(F)(F)F)[C@H](CCC(F)(F)F)C(N)=O)N=C2c1cccc(F)c1 ?
false (0)

Recorded call for COC(=O)Nc1nc2ccc(C(=O)C3CC3)cc2[nH]1 ?
true (1)

State the result this test recorded for Nc1cc2c(c3ccccc13)C(CCl)CN2C(=O)c1cc2cc(NC(=O)c3cc4ccccc4o3)ccc2[nH]1 (configuration not stated) .
true (1)

Entry CCOC(=O)c1c2c(n(Cc3ccccc3)c1C)-c1nc[nH]c1C(=O)C2=O : call = ?
false (0)

Dear colleague, could you share the recorded outcome for O=C1/C(=C\c2ccc(Cl)cc2)CN(C(=O)c2ccccc2)C/C1=C\c1ccc(Cl)cc1 when you have a moment?
false (0)

Next:
What is the recorded call for this compound in the test? O=C1NC(=N[C@@H]2C[C@H]2c2ccccc2)S/C1=C\c1ccc2ncccc2c1
false (0)

Check the results log: what was the call for O=C(NC(=S)Nc1ccc(-c2nc3ccccc3[nH]2)cc1)c1ccc2ccccc2c1 ?
false (0)

###

test system: CCRF-CEM leukemia; assay: NCI tumour cell line growth inhibition, 48 h
Recorded TGI, one value per entry.

Here's what some known entries look like.
State the recorded TGI for this entry: Cc1cc(S(=O)(=O)Nc2n[nH]c(-c3ccc(Cl)cc3)c2C#N)c(S)cc1Cl
> 100 µM

State the recorded TGI for this entry: Cc1cc2c(=O)cc(-c3ccc(Cl)c(Cl)c3)oc2c(C(=O)O)c1C
> 100 µM

Okay, now this compound:
For the compound NS(=O)(=O)c1ccc(N=Nc2c(O)[nH]c3cccc(CCc4ccncc4)c23)cc1 , what TGI is on record?
> 25 µM

###

test system: RPMI-8226 leukemia; test: NCI tumour cell line growth inhibition, 48 h
# TGI listing for each entry below
Reply with just the number (in µM).

Recall the recorded TGI for CC(C)(Cl)C(Br)CCC(=CCBr)CBr (mixture of isomers) with RPMI-8226 leukemia and state it.
3.22

New cases:
Form field: TGI recorded for CCC1CN2CCc3cc(OC)c(OC)cc3C2CC1CC1c2cc(OC)c(OC)cc2CCN1C(=O)C(Cc1c[nH]c2ccccc12)NC(=O)OC(C)(C)C (stereo not given) with RPMI-8226 leukemia (enter value)
6.15

###

system: RXF 393 renal; assay: NCI tumour cell line growth inhibition, 48 h
endpoint-label: TGI

// known answers, use as guide
Fill in the blank: the reported TGI of Nc1ccc(N=Nc2ccc(-c3ccc(N=Nc4c(S(=O)(=O)O)cc5cc(S(=O)(=O)O)c(N=Nc6ccc([N+](=O)[O-])cc6)c(N)c5c4O)cc3)cc2)c2cc(S(=O)(=O)O)ccc12 is ____.
> 100 µM

Reported TGI, compound CC[C@H]1[C@@H](C)C=C[C@@H](C)N1S(=O)(=O)c1ccc(C)cc1 : ____
> 100 µM

Name the recorded TGI for CNC(=O)Nn1c(SC)nc2ccccc21 .
> 100 µM

Looking for the measured TGI of COc1cc(C)cc(C(=O)OCc2ccccc2)c1C1=C(Cl)C(=O)C(Cl)=CC1=O , can you help?
> 10 µM

What value of TGI has been reported for the following compound? C=CCC1=C2CCCCC2CCC1=O (centres undefined)
> 100 µM

Look up TGI: S=c1sc2sc(=S)sc2s1
> 100 µM

Fill in: TGI of CCOC(=O)c1csc(NC(=O)CCN2CCOCC2)n1 is ___
> 100 µM

What value of measured TGI is listed for NS(=O)(=O)c1ccc(N=Nc2c(O)[nH]c3cccc(CCc4ccncc4)c23)cc1 ?
> 25 µM

Continuing:
Entry Cc1cc2c(cc1C)[n+](=O)c(C(=O)CC(=O)C(=O)Nc1ccccc1C)c(C)n2[O-] : reported TGI = ?
> 100 µM

I am curious: what TGI value has been reported for Clc1ccc(-c2cn3c(nc4ccccc43)c(/C=C/c3cccs3)n2)cc1 ?
> 100 µM

Suppose we examine the compound CNc1cccc(-c2cc(=O)c3cc4c(cc3[nH]2)OCO4)c1 ; what TGI value has been reported?
> 100 µM

###

test system: SF-268 CNS; experiment: NCI tumour cell line growth inhibition, 48 h
Measured TGI values are reported for all entries that follow.

Request body: readout TGI, system SF-268 CNS, query CCCCN(CCCC)C(=O)C(=O)C(C(=O)C(=O)OC)c1nc2ccccc2o1 (stereo not drawn) . Return the value.
> 100 µM

Notebook: pull reported TGI for SF-268 CNS, entry NNC(=S)N/N=C/c1ccccn1
> 100 µM

Query the reported TGI for SF-268 CNS; item: N#CC1(C#N)C2C=CC(C3CC=CC32)C1(C#N)C#N (stereo not drawn)
22.6 µM

Entry CN(CCNc1ccc(C(=N)N)cc1)c1ccc(C(=N)N)cc1 , system SF-268 CNS: what TGI was measured?
> 100 µM

Query the reported TGI for SF-268 CNS; item: O=C1CCN(CCC(F)(F)C(F)(F)C(F)(F)C(F)(F)F)C(=S)N1
> 100 µM

Others:
Lab request: please report TGI under test system SF-268 CNS for CN1CCN(C(=O)OCc2nc3c(N4CCOCC4)nc(-c4ccccc4)nc3n2C)CC1
2.85 µM

Short answer please: TGI, SF-268 CNS, entry COC(=O)C(=O)C(C(=O)C(=O)Nc1ccccc1C(N)=O)c1nc2ccc([N+](=O)[O-])cc2[nH]c1=O (stereo not drawn)
> 100 µM

###

# GI50 per record follows
tested on: SNB-19 CNS; assay: NCI tumour cell line growth inhibition, 48 h

# example entries with known answers
Fill in the recorded GI50 for this compound, with SNB-19 CNS as test system: Cc1ccc([I+]c2ccc(C)cc2)cc1
16.1 µM

Fill in the recorded GI50 for this compound, with SNB-19 CNS as test system: CC(=O)N[C@@H](Cc1ccc(OP(=O)(O)O)cc1)C(=O)N[C@H]1CCC(=O)N2CCC[C@@H](C(=O)NCc3cccc4ccccc34)N2C1=O
> 25 µM

New cases:
Please provide the recorded GI50 for O=C1/C(=C\c2ccc(Cl)cc2)CN(C(=O)c2ccccc2)C/C1=C\c1ccc(Cl)cc1 , tested on SNB-19 CNS.
3.27 µM

###

system: UACC-257 melanoma; assay: NCI tumour cell line growth inhibition, 48 h; in the data active means GI50 below about 0.43 µM; inactive means the rest
Respond only with the outcome that fits, drawn from active, inactive

Record request — test call for Cl.Fc1c[c-]c(-c2ccccn2)c(F)c1.[Pt].c1ccc([PH+](c2ccccc2)c2ccccc2[PH+](c2ccccc2)c2ccccc2)cc1
active

# lookup: test call for CCOC(=O)Cc1csc(Nc2nc(O)c(C3=c4ccccc4=NC3=O)s2)n1
inactive

How did this test come out for Oc1c(CCl)cc(Cl)cc1Cc1cc(Cl)cc(Cc2cc(Cl)cc(CCl)c2O)c1O ?
inactive

Look up the recorded call for COc1cc2c3c(n(CCCNC(C)(C)CO)c(=O)c2cc1OC)-c1cc2c(cc1C3=O)OCO2 in this test.
inactive

Assay outcome for O=C1NC(=N[C@@H]2C[C@H]2c2ccccc2)S/C1=C\c1ccc2ncccc2c1 : what was it?
inactive

In this assay, the call recorded for Cc1cc(S(=O)(=O)Nc2n[nH]c(-c3ccc(Cl)cc3)c2C#N)c(S)cc1Cl was what?
inactive

***
Test call, this compound: COC(=O)CC12CC(NC(=O)c3csc([C@@H](C[C@H](C(C)C)N(C)C(=O)[C@@H](NC(=O)[C@H]4CCCCN4C)C(C)C)OC(C)=O)n3)(C1)C2
inactive

Hi, sorry to bother you, what did the test record for CN(CCNc1ccc(C(=N)N)cc1)c1ccc(C(=N)N)cc1 ?
inactive

Tell me the assay call for COc1ccc(/C=C/C(=O)c2ccc(B(O)O)cc2)cc1O please.
inactive

Identify the outcome logged in this assay for the compound shown: O=C(NCCCNc1cc(-c2cn(-c3ccccc3)nc2-c2cccc(O)c2)ccn1)c1ccc(F)cc1
inactive

Please indicate how the test categorized COC(=O)Nc1nc2ccc(C(=O)C3CC3)cc2[nH]1 .
active

State the result this test recorded for CC(=O)NS(=O)(=O)c1ccc(-n2nc(-c3ccccc3)cc2-c2cc(O)ccc2O)cc1 .
inactive
